system: HCT-116 colon; assay: NCI-60 one-dose screen, 48 h; conditions: 10 µM unless noted
About 83,000 compounds went through this panel and 20% of them were active in at least one assay; those are over-represented in the sample as a whole. Active and inactive are the calls of the source. How the source made its calls: active means growth percent below 10; inactive means the rest.
Valid outcomes are listed here; reply with one: active, inactive

Some entries whose results are on file:
INSERT INTO results (smiles_notation, discrete_label) VALUES
  ('Clc1ccc(-c2cc(-c3ccccc3)nc(NCCNc3ccnc4cc(Cl)ccc34)n2)cc1', 'active'),
  ('COc1cc(/C=C/C(=O)/C=C(O)/C=C/c2ccc(OC(=O)C34CC5CC(CC(C5)C3)C4)c(OC)c2)ccc1OC(=O)C12CC3CC(CC(C3)C1)C2', 'inactive'),
  ('N=C(N)c1ccc(-c2ccc(-c3cc(Cl)cc(Cl)c3)s2)nc1', 'active');

input: Tell me the recorded outcome of this test for C=C(c1ccc(OC)c(/C=C/C(=O)c2ccc3c(c2)OCO3)c1)c1cc(OC)c(OC)c(OC)c1 .
output: active

input: Tell me the recorded outcome of this test for Cc1ccc(C)c(/C=C2\CN(C(=O)OC(C)(C)C)C/C(=C\c3cc(C)ccc3C)C2=O)c1 .
output: active

----------
Below, each of the compounds is paired with its reported growth value.
test system: OVCAR-4 ovarian; experiment: NCI-60 one-dose screen, 48 h (100 = growth as untreated, 0 = no growth, -100 = all killed); settings: 10 µM unless noted
About 83,000 compounds went through this panel and 20% of them were active in at least one assay; those are over-represented in the sample as a whole.
Quick note: give the figure in %, leave out the unit.

Below are worked cases with known answers.
INSERT INTO assay_data (compound, recorded_endpoint, assay_value) VALUES
  ('COc1cc(C(=O)n2nc(N3CCOCC3)c3cc(-n4cccc4)ccc32)cc(OC)c1OC', 'growth', 68.5),
  ('O=C1c2ccccc2C(=O)c2c1cc1c(c2[N+](=O)[O-])OCO1', 'growth', 19.2),
  ('O=C1c2cccc3cccc(c23)C(=O)N1C/C=C/c1ccc2c3c(cccc13)C(=O)N(CCO)C2=O', 'growth', 40.1),
  ('COc1cc(Cl)c(C)cc1NC(=O)c1cc2ccccc2cc1O', 'growth', 20.7),
  ('O=C(O)/C=C/C(=O)Nc1cccc(Cn2nnc3cc(Cl)c(Cl)cc32)c1', 'growth', 108);

input: Query growth for COc1cc(NC(=O)c2cncnc2Nc2ccc3c(ccn3Cc3ccccn3)c2)cc(OC)c1
output: 78.4

input: Query growth for COc1cccc(CCNc2ncnc3c2ncn3Cc2nnc3c4ccccc4c(Cl)nn23)c1
output: 57.5

input: Query growth for CC1=C2[C@@H](CC1)[C@]1(C)O[C@@](C3CCCCC3)(C[C@H]1OC(=O)CO)[C@H]2OC(=O)/C=C/c1ccccc1
output: 92.9

input: Query growth for CC1=CC(c2ccco2)=C2C(N)=NNC2N1 (centres undefined)
output: 92.6

----------
system: SF-268 CNS; test: NCI-60 one-dose screen, 48 h; details: 10 µM unless noted
About 83,000 compounds went through this panel and 20% of them were active in at least one assay; those are over-represented in the sample as a whole. The source made the active and inactive calls. Rule for the calls: active = growth percent below 10; inactive = the rest.
Valid outcomes are listed here; reply with one: active, inactive

Some entries whose results are on file:
INSERT INTO results (compound, discrete_label) VALUES
  ('CC1(C)NCCC[C@]2(C)[C@H]3CC[C@H]4[C@H]5[C@H](C(=O)/C=C/c6cccnc6)CCC[C@]5(CO)CC[C@@]4(C)[C@]3(C)CC[C@@H]12', 'inactive'),
  ('CN(C)CCCNC(=O)c1cncnc1Nc1ccc(OCc2cccc(F)c2)c(Cl)c1', 'inactive'),
  ('NNCCc1ccc(NC(=O)CCCc2ccc(C(=O)Nc3ccccc3N)cc2)cc1', 'inactive'),
  ('CCOc1ccc(-n2nc(C(=O)NCc3ccccc3OC)nc2-c2cc(OC)c(OC)c(OC)c2)cc1', 'inactive');

input: Tell me the recorded outcome of this test for Cc1ccc(Cl)cc1NC(=O)c1sc2nc3c(cc2c1N)C(=O)CCC3 .
output: inactive

input: Tell me the recorded outcome of this test for CC/C=C\CCC/C=C1/C(=O)C=C[C@@H]1C/C=C\CCCC(=O)OC .
output: inactive

input: Tell me the recorded outcome of this test for CC1(C)OB(O)c2cc(-c3nc4ccc5[nH]ncc5c4c4c3CCCC4)ccc21 .
output: inactive

----------
test system: MDA-MB-435 melanoma; assay: NCI-60 one-dose screen, 48 h (100 = growth as untreated, 0 = no growth, -100 = all killed); settings: 10 µM unless noted
About 83,000 compounds went through this panel and 20% of them were active in at least one assay; those are over-represented in the sample as a whole. The source made the active and inactive calls. How the source made its calls: active means growth percent below 10; inactive means the rest.
RECORDED_ENDPOINT: growth

INSERT INTO assay_data (smiles_notation, assay_value) VALUES
  ('Cc1ccc(S(=O)(=O)Oc2ccc3sc4cccc(NCCN(C)C)c4c(=O)c3c2)cc1', '-96.3% (active)'),
  ('Cc1nc2ccccc2c(/C=C/c2ccccc2)c1C(=O)/C=C/c1ccccc1', '-17.2% (active)');

Then there is this compound:
input: Query growth for C/C(Cc1ccc(Cl)cc1)=C(\c1ccc(OCCCN(C)C)cc1)c1ccc(OC(=O)Cc2ccccc2)cc1
output: 107% (inactive)

----------
test system: LOX IMVI melanoma; assay: NCI-60 one-dose screen, 48 h; conditions: 10 µM unless noted
About 83,000 compounds went through this panel and 20% of them were active in at least one assay; those are over-represented in the sample as a whole. Calls of active or inactive are those of the source. How the source made its calls: active means growth percent below 10; inactive means the rest.
Valid outcomes are listed here; reply with one: active, inactive

INSERT INTO assay_data (compound, assayed_system, discrete_label) VALUES
  ('COc1ccc(C(=O)/C=C/c2ccc(N3CCCCC3)cc2)cc1OC', 'LOX IMVI melanoma', 'inactive'),
  ('COc1cccc(/C=C/C(=O)c2cccc(Nc3nc(Nc4ccccc4)nc(Nc4ccccc4)n3)c2)c1', 'LOX IMVI melanoma', 'inactive'),
  ('C=C1C(=O)O[C@H]2[C@H]1CC/C(COC(=O)/C=C\C(=O)NCc1ccc(Cn3c(=O)sn(CCCCC)c3=O)cc1)=C\CC[C@@]1(C)O[C@@H]21', 'LOX IMVI melanoma', 'inactive'),
  ('N=c1c(S(=O)(=O)c2ccccc2)cc2c(=O)n3ccccc3nc2n1CC1CCCO1 (stereo not drawn)', 'LOX IMVI melanoma', 'inactive'),
  ('COC(=O)c1c2c(c(C)[n+]([O-])c1C)C(=O)C(NCc1cccc(Cl)c1)=CC2=O', 'LOX IMVI melanoma', 'inactive');

input: Tell me the recorded outcome of this test for COc1ccc(CNc2c3ccccc3nc3ccccc23)c(OC)c1 .
output: inactive

input: Tell me the recorded outcome of this test for Cc1ccc(C)c2c(C)c(C(=O)Nc3cccc(-n4cccn4)c3)oc12 .
output: inactive

input: Tell me the recorded outcome of this test for COc1ccc(C(=O)/C=C/c2ccc(Cl)cc2)cc1S(=O)(=O)Nc1c(N)nc(SC)[nH]c1=O .
output: active

----------
system: HOP-62 NSCLC; test: NCI-60 one-dose screen, 48 h; details: 10 µM unless noted
The panel holds about 83,000 compounds, 20% with a hit somewhere; the sample as a whole holds those more often. Active and inactive are the calls of the source. Rule for the calls: active = growth percent below 10; inactive = the rest.
Valid outcomes are listed here; reply with one: True = active, False = inactive

Some entries whose results are on file:
INSERT INTO measurements (molecule, assayed_system, discrete_label) VALUES
  ('CC1(C)CC2=C3C=C[C@@H]4[C@@]5(C)CCC(=O)C(C)(C)[C@@H]5CC[C@@]4(C)[C@]3(C)CC[C@@]2(C(=O)O)C[C@H]1O', 'HOP-62 NSCLC', 'False'),
  ('COc1ccc(Cn2cc3c(c2-c2ccccc2)CCc2cnoc2-3)cc1', 'HOP-62 NSCLC', 'False'),
  ('O=S(=O)(NCCNc1nccc(-c2c(-c3cccc(O)c3)nc3occn23)n1)c1ccc(Br)cc1', 'HOP-62 NSCLC', 'False'),
  ('NC(N)=NS(=O)(=O)c1ccc(NC2=C(I)C(=O)c3ncccc3C2=O)cc1', 'HOP-62 NSCLC', 'False'),
  ('Cc1c(CN)cc(-c2ccc(Cl)cc2)n1-c1ccccc1', 'HOP-62 NSCLC', 'False'),
  ('Cc1ccc(Cl)cc1NC(=O)c1sc2nc3c(cc2c1N)C(=O)CCC3', 'HOP-62 NSCLC', 'False'),
  ('O=C(C1CCCCC1)[C@@H]1[C@]2(C(=O)NC3CCCCC32)[C@@H]2CCCN2[C@@]12C(=O)NC1CCC(Cl)CC12 (stereo partly drawn)', 'HOP-62 NSCLC', 'True'),
  ('COc1ccc(Cn2cc(C(=O)N=Nc3c(O)[nH]c4c(C)cccc34)nn2)cc1', 'HOP-62 NSCLC', 'False'),
  ('O=C(CCCCCCN1CC(=O)N2[C@H](c3ccc(Cl)cc3)c3[nH]c4ccccc4c3C[C@@H]2C1=O)NO', 'HOP-62 NSCLC', 'False'),
  ('CC1CCN(C(=O)CCCl)c2ccccc21 (stereo not drawn)', 'HOP-62 NSCLC', 'False');

input: Tell me the recorded outcome of this test for COC(=O)c1cc(Br)ccc1O .
output: False

input: Tell me the recorded outcome of this test for Cc1ccc(-c2nc(N3CCNCC3)c3oc(-c4ccc(C)cc4)nc3n2)cc1 .
output: False

input: Tell me the recorded outcome of this test for O=S(=O)(NCCNc1nccc(-c2c(-c3ccc(F)c(O)c3)nc3sccn23)n1)c1ccc(F)cc1 .
output: False
